Value source: PubChem BioAssay (NCI)

tested on: LOX IMVI melanoma; test: NCI tumour cell line growth inhibition, 48 h
ASSAY READOUT: TGI

Example entries and their recorded answers appear below.
[[record]]
compound = "O=C1C=C(Nc2ccccc2C(=O)CC(=O)C(=O)Nc2cccc(C(F)(F)F)c2)c2ccccc2C1=O"
assay_readout = "TGI"
val = "27.3 µM"

[[record]]
compound = "COC(OC)c1cccc2c1C1(O)CCC3(CC21)OCCCCO3 (stereo unspecified)"
assay_readout = "TGI"
val = "> 100 µM"

[[record]]
compound = "CC(=O)OC12c3ccccc3C1CCCCCC21OCCCO1 (stereo unspecified)"
assay_readout = "TGI"
val = "> 100 µM"

[[record]]
compound = "COc1cc(CSc2nc3ccc(C)cc3c(=O)n2Cc2ccccc2)cc(OC)c1OC"
assay_readout = "TGI"
val = "> 100 µM"

[[record]]
compound = "COc1ccc(-c2n[nH]nc2-c2csc3ccccc23)cc1OC"
assay_readout = "TGI"
val = "15.7 µM"


Would you kindly look at the next entry?
Give its TGI value. Item: C=C1c2c(cc3c(c2O)c(=O)c2ccccc2n3C)OC1(C)C > 100 µM

----------
tested on: DU-145 prostate; test: NCI tumour cell line growth inhibition, 48 h
Recorded TGI, one value per entry.

Reported TGI, molecule CC(ONC(=O)c1cc(C(F)(F)F)cc(C(F)(F)F)c1)C(=O)Nc1ccc(Cl)cc1 (configuration not stated) : ____ > 100 µM

----------
test system: HS 578T breast; assay: NCI tumour cell line growth inhibition, 48 h; in the data active = GI50 below about 0.43 µM; inactive = the rest
Choose the fitting class; nothing outside active, inactive is accepted.

Hi, do you know how CCCN(CCC)c1ccc(CO)c(C)c1 came out in this test? inactive

Returns: the outcome recorded for Cn1c(COC(=O)N2CCCCC2)nc2c(N3CCOCC3)nc(-c3ccccc3)nc21 in this assay. inactive

Please share the test call associated with CC(C)=CCc1c(O)cc(/C=C/c2cc(O)c3c(c2)C[C@@H]2C(C)(C)[C@H](O)[C@H](O)C[C@@]2(C)O3)cc1O . active

Short answer needed: outcome of this test for C#C[C@]1(O)CC[C@H]2[C@@H]3CC=C4c5sc(N=C(N)N)nc5CC[C@]4(C)[C@H]3CC[C@@]21C ? active

Per the records of this test, what outcome belongs to COc1cccc(/C=N\Nc2ccc([N+](=O)[O-])cn2)c1O ? inactive

----------
test system: T-47D breast; assay: NCI tumour cell line growth inhibition, 48 h; in the data active means GI50 below about 0.43 µM; inactive means the rest
Give one outcome, nothing more. List: active, inactive

Look over these answered cases.
[[record]]
compound = "CC(=O)OC1COC(S[As](C)C)C(OC(C)=O)C1OC(C)=O (configuration not stated)"
group_label = "inactive"

[[record]]
compound = "Brc1ccc([I+]c2ccc(Br)cc2)cc1"
group_label = "inactive"

[[record]]
compound = "O=C1/C(=C/c2ccccc2Cl)N=C(c2ccccc2)N1Cc1ccco1"
group_label = "inactive"

[[record]]
compound = "O=C(Nc1ccc(Br)cc1)Nc1n[nH]c2ccccc12"
group_label = "inactive"

[[record]]
compound = "CS(=O)(=O)CCNCc1ccc(-c2ccc3ncnc(Nc4ccc(OCc5cccc(C(F)(F)F)c5)cc4)c3c2)o1"
group_label = "inactive"


Assay result, entry O=C1OCC(C#Cc2ccccc2)=C1Cl — outcome? inactive

Call for entry COC(CCP(=O)(c1ccccc1)c1ccccc1)(C(=O)c1ccccc1)c1ccccc1 (configuration not stated) : inactive

Would you mind telling me which call this test gave CC(C)(C)c1ccc([I+]c2ccc(C(C)(C)C)cc2)cc1 ? inactive

Tell me the recorded outcome of this test for CC1(C)N=C(N)N=C(N)N1c1ccc(F)c(C(F)(F)F)c1 . inactive

What classification did COc1cnc2c(c1)C(=O)c1c-2n(CCCn2ccnc2)c(=O)c2cc(Cl)ccc12 end up with in this test? active

State the result this test recorded for ClCCN(CCCl)c1ccc(-n2cnc3c(Cl)ncnc32)cc1 . inactive

// return assay outcome for CCC(Sc1nnc2c3ccccc3n(CC)c2n1)C(=O)Nc1ccccc1OC (configuration not stated) inactive

----------
Measured GI50, listed per entry.
system: OVCAR-8 ovarian; experiment: NCI tumour cell line growth inhibition, 48 h

Solved cases (3 shown):
[[record]]
compound = "COCCOC(=O)C1=C(C)NC2=C(C(=O)CC(c3ccccc3OC)C2)C1c1cccc(O)c1 (centres undefined)"
assay_readout = "GI50"
val = "11.3 µM"

[[record]]
compound = "CC(=O)O[C@H]1CC[C@]2(C)[C@H]3CC[C@@H]4[C@H]5[C@H](C(C)C)CC[C@]5(C(=O)OCC(CO)(CO)N=C(N)N)CC[C@@]4(C)[C@]3(C)CC[C@H]2C1(C)C"
assay_readout = "GI50"
val = "2.32 µM"

[[record]]
compound = "N#Cc1ccccc1C#C/C=C\\C#Cc1ccc(OCCCNC(=O)c2cc3ccccc3[nH]2)cc1"
assay_readout = "GI50"
val = "16.2 µM"


Please look up its GI50: CC1(C)N=C(N)N=C(N)N1c1ccc(F)c(C(F)(F)F)c1 0.597 µM

Name the reported GI50 value associated with the compound CC(C)=CCc1c(O)cc(/C=C/c2cc(O)c3c(c2)C[C@@H]2C(C)(C)[C@H](O)[C@H](O)C[C@@]2(C)O3)cc1O 1.92 µM

Would you mind telling me what GI50 value was observed for COc1ccc2c(c1)CC[C@@H]1[C@@H]2CC[C@@]2(C)[C@H]1CC1(CCCCC1)[C@@H]2O ? 19 µM

// lookup GI50 for CS(=O)(=O)CCNCc1ccc(-c2ccc3ncnc(Nc4ccc(OCc5cccc(C(F)(F)F)c5)cc4)c3c2)o1 6.91 µM

Which measured GI50 value corresponds to COc1ccc(-c2n[nH]nc2-c2csc3ccccc23)cc1OC ? 4.24 µM

// returns reported GI50 for input O=C(Nc1cc(C(F)(F)F)ccc1F)Nc1n[nH]c2ccccc12 > 100 µM

----------
system: MOLT-4 leukemia; test: NCI tumour cell line growth inhibition, 48 h
Known TGI of a selection of molecules

[[record]]
molecule = "Cc1ccccc1C(=O)Oc1ccc(Oc2ccccc2)cc1"
val = "> 100 µM"

[[record]]
molecule = "CCCCCCCCCCCCCCCc1cc(O)ccc1N"
val = "> 24.8 µM"

[[record]]
molecule = "NC1C/C(=N\\O)c2c(I)sc(I)c21 (stereo unspecified)"
val = "> 100 µM"

[[record]]
molecule = "O=C(N/N=C1\\CCc2ccccc2C1)N/N=C1\\CCc2ccccc2C1"
val = "> 10 µM"

[[record]]
molecule = "CC(=O)/C=C/C1=C(c2cc3ccccc3s2)c2ccccc2CC1"
val = "> 100 µM"


Quick one: TGI of COc1cccc(/C=N\Nc2ccc([N+](=O)[O-])cn2)c1O ? 16.9 µM

Which TGI reading was recorded for the molecule COc1cc(OC)c2c(=O)c(O)c(-c3ccc(OC)c(OC)c3)oc2c1 ? 9.61 µM

----------
Each entry below carries its reported TGI.
test system: DMS 273 small cell lung; experiment: NCI tumour cell line growth inhibition, 48 h

Tell me reported TGI for COc1cc2c(c(OC)c1OC)-c1[nH]ncc1CC2 , tested with DMS 273 small cell lung. > 100 µM

----------
TGI listing for selected compounds.
tested on: T-47D breast; experiment: NCI tumour cell line growth inhibition, 48 h
Hi! Could you send only the number? It should be in µM, unit omitted.

[[record]]
structure_notation = "O=C(CN1CCN(C(=O)OCc2ccccc2)CCN(CC(=O)N2CCCCC2)CCN(C(=O)OCc2ccccc2)CC1)N1CCCCC1"
measured_target = "T-47D breast"
assay_readout = "TGI"
val = 38.8

[[record]]
structure_notation = "CC(=O)O[C@@H]1CO[C@H]2O[C@H]3[C@@H](C(C=O)=C[C@H](O)[C@@H]4C5=C(C(C)C)CC[C@]5(C)CC[C@@]34C)[C@@]2(O)C1=O"
measured_target = "T-47D breast"
assay_readout = "TGI"
val = 0.378

[[record]]
structure_notation = "COc1ccc(Cc2nc3cc(C(F)(F)F)ccc3n2CCCN(C)C)cc1"
measured_target = "T-47D breast"
assay_readout = "TGI"
val = 32.3


Shift focus to the following entry.
Query (compound): COc1cc(CSc2nc3ccc(C)cc3c(=O)n2Cc2ccccc2)cc(OC)c1OC ; field requested: TGI 32.6

----------
test system: SN12C renal; assay: NCI tumour cell line growth inhibition, 48 h
Below: a set of entries, each annotated with reported TGI.

Known TGI results, listed for orientation:
[[record]]
compound = "Cn1c(CCC#N)nc2ccc(Br)cc2c1=O"
val = "> 100 µM"

[[record]]
compound = "C/C(=N\\Nc1ccc([N+](=O)[O-])cc1[N+](=O)[O-])c1ccc2ccccc2n1"
val = "> 100 µM"

[[record]]
compound = "COC(=O)C1=Nc2c(C)nn(-c3ccccc3)c2N=C(c2ccc(C)cc2)C1"
val = "> 10 µM"

[[record]]
compound = "O=C(c1cc(Cl)cc(Cl)c1)N(C(=S)OC12CC3CC(CC(C3)C1)C2)c1ccccc1"
val = "> 100 µM"

[[record]]
compound = "COC(=O)C(CCC1C=CCC1)N=Cc1ccccc1 (stereo unspecified)"
val = "> 100 µM"

[[record]]
compound = "O=C(OCCOCBr)c1ccccc1"
val = "> 100 µM"

[[record]]
compound = "CC(=O)N1CC2Nc3ccccc3C2CC1CO (stereo unspecified)"
val = "> 100 µM"

[[record]]
compound = "NNC(=O)c1c(Cl)c(Cl)c(Cl)c(Cl)c1-c1nc2ccccc2[nH]1"
val = "> 100 µM"

[[record]]
compound = "O=C(Nc1cc(C(F)(F)F)ccc1F)Nc1n[nH]c2ccccc12"
val = "> 100 µM"

[[record]]
compound = "CC(=O)Oc1ccc2c(c1)c1c(=O)oc(N(C)C)nc1n2Cc1ccccc1"
val = "> 100 µM"


API: the following record is the query input.
Param readout = TGI; param system = SN12C renal; param query = CC(C)(C)c1ccc([I+]c2ccc(C(C)(C)C)cc2)cc1 ; response: value 5.21 µM
